Target: T1, bacterially produced human IL-6 (Homo sapiens, UniProt P05231)
T1 construct: His
T1 sequence (P05231 30-212): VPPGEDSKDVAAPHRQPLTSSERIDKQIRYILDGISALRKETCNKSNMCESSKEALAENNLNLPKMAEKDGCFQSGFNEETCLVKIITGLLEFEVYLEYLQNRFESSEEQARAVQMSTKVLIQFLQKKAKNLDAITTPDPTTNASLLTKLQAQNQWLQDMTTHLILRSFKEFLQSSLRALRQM
Assay: Surface plasmon resonance (Biacore), bacterially produced human IL-6 coated on CM5 chip
Type: binding
Conditions: bact; periplasmic fractions, 29B11 chain shuffled
Procedure: The binding kinetics of IL-6-specific Fabs that were able to cross-compete with the B-E8 antibody was assessed using surface plasmon resonance (Biacore). […] From the washing phase the off-rate (kd) was determined, while from the injection phase the on-rate (ka) was calculated using the concentration and off-rate as parameters. […]
propertyMeasured: kd (s⁻¹)

molecule: 55C1a: 29B11 chain shuffled Fab, periplasmic fraction (antibody, V domains shown) VH: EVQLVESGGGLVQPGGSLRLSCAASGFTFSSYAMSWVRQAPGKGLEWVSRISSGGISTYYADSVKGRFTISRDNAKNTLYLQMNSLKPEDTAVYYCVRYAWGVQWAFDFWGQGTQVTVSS VL: ALNFMLTQPPSVSGSPGKTVTISCAGTSSDVGYGNYVSWYQQLPGTAPKLLIYNVNKRASGITDRFSGSKSGNTASLTISGLQSEDEADYYCASYRTGDNAAFGGGTKLTVLG
measuredNumber: 7.38e-05
